meta.source: paper PMC5677568

biological target: UEA-1; test: Isothermal titration calorimetry; details: read-out: Values shown are Kd
parameterMeasured: pKd
Answers are plain numbers, as −log10 of the molar value.

As a guide, the following entries are already answered.
INSERT INTO measurements (compound, measured) VALUES
  ('C[C@@H]1O[C@@H](O[C@H]2[C@H](O[C@H]3[C@H](O)[C@@H](O)C(O)O[C@@H]3CO)O[C@H](CO)[C@H](O)[C@@H]2O)[C@@H](O)[C@H](O)[C@@H]1O (stereo partly drawn)', 4.90),
  ('CC(=O)N[C@H]1C(O)O[C@H](CO)[C@@H](O[C@@H]2O[C@H](CO)[C@H](O)[C@H](O)[C@H]2O[C@@H]2O[C@@H](C)[C@@H](O)[C@@H](O)[C@@H]2O)[C@@H]1O (stereo partly drawn) [H-trisaccharide]', 5.09);

Now take the following compound into account.
Item: CC(=O)N[C@H]1C(O)O[C@H](CO)[C@@H](O[C@@H]2O[C@H](CO)[C@H](O)[C@H](O)[C@H]2O[C@@H]2O[C@@H](C)[C@@H](O)[C@@H](O)[C@@H]2O)[C@@H]1O[C@@H]1O[C@@H](C)[C@@H](O)[C@@H](O)[C@@H]1O (stereo partly drawn) | System: UEA-1 | pKd: 4.70

* * *

target: O13; assay: Isothermal titration calorimetry; conditions: read-out: Values shown are Kd
parameterMeasured: pKd
Numbers only, as −log10 of the molar value.

INSERT INTO results (compound, measured) VALUES
  ('CC(=O)N[C@H]1C(O)O[C@H](CO)[C@@H](O[C@@H]2O[C@H](CO)[C@H](O)[C@H](O)[C@H]2O[C@@H]2O[C@@H](C)[C@@H](O)[C@@H](O)[C@@H]2O)[C@@H]1O (some centres unmarked) [H-trisaccharide]', 5.59);

// pKd lookup, compound = CC(=O)N[C@H]1[C@H](O[C@H]2[C@@H](O)[C@@H](CO)O[C@@H](O[C@H]3[C@H](O)[C@@H](O)C(O)O[C@@H]3CO)[C@@H]2O)O[C@H](CO)[C@@H](O[C@@H]2O[C@H](CO)[C@H](O)[C@H](O)[C@H]2O)[C@@H]1O (some centres unmarked) , result: 3.80
